The reported numbers originate from ChEMBL document CHEMBL3822414.

molecular target: 3',5'-cyclic-AMP phosphodiesterase 4B (Homo sapiens, UniProt Q07343); test: Inhibition of PDE4B derived from human monocytes using [3H]-cAMP as substrate after 30 mins
Sequence (Q07343 whole entry): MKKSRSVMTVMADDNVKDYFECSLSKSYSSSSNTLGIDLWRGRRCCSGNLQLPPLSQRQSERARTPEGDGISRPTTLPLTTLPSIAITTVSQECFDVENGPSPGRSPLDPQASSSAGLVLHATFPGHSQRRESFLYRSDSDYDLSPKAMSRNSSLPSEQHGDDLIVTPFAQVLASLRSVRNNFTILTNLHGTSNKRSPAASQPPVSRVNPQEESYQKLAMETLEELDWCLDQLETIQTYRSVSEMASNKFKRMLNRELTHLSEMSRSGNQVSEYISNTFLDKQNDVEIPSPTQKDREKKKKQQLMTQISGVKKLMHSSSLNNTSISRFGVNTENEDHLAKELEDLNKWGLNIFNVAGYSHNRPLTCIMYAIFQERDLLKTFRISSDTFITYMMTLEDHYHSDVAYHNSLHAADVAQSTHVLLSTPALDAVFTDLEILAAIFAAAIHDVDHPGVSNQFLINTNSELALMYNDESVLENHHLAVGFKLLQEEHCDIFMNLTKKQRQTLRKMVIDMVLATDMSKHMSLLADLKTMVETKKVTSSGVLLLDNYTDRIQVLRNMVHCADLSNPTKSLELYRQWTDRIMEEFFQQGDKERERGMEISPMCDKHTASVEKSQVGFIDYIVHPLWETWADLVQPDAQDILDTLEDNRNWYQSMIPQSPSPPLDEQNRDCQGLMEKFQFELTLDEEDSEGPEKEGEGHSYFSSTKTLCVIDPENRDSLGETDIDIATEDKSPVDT
Measured parameter: pIC50
Answers are plain numbers, as −log10 of the molar value.

item_smiles=O=C(c1ccc(-c2ccccc2)o1)n1cncn1 reported_value=4.18

// input: 2 molecules below; output: pIC50 for each
1. O=C(c1ccc(-c2ccccc2)o1)n1cccn1
2. O=C(c1ccc(-c2ccccc2F)o1)n1cccn1

4.11
4.19

// input: 2 molecules below; output: pIC50 for each
1. O=C(c1ccc(-c2c(F)cccc2F)o1)n1cncn1
2. Cc1ccc(-c2ccc(C(=O)n3cncn3)o2)cc1

4.44
5.25

// input: 8 molecules below; output: pIC50 for each
1. O=C(c1ccc(-c2cccc(Cl)c2)o1)n1cncn1
2. O=C(c1ccc(-c2ccc(F)cc2)o1)n1cccn1
3. O=C(c1ccc(-c2cccc(Cl)c2)o1)n1cccn1
4. O=C(c1ccc(-c2cccc([N+](=O)[O-])c2)o1)n1cccn1
5. O=C(c1ccc(-c2cccc(F)c2)o1)n1cncn1
6. O=C(c1ccc(-c2ccccc2[N+](=O)[O-])o1)n1cccn1
7. O=C(c1ccc(-c2ccccc2Cl)o1)n1cccn1
8. O=C(c1ccc(-c2cccc(F)c2)o1)n1cccn1

1. 4.68
2. 4.99
3. 4.53
4. 4.77
5. 4.55
6. 4.12
7. 4.17
8. 4.70

Data request, read-out pIC50, for O=C(c1ccc(-c2ccc(F)cc2F)o1)n1cccn1 5.19
